Assay read-out Ki; system under study: Xa (Homo sapiens, UniProt P00742).
Sequence (P00742 235-488 limits assumed): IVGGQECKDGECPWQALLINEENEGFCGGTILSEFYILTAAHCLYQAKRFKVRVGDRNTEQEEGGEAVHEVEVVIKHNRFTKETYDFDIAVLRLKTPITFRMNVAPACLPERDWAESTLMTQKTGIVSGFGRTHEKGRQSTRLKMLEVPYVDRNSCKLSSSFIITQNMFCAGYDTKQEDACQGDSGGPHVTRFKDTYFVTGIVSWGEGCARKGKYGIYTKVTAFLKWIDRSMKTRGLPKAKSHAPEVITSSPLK
Sequence (P00742 41-179 limits assumed): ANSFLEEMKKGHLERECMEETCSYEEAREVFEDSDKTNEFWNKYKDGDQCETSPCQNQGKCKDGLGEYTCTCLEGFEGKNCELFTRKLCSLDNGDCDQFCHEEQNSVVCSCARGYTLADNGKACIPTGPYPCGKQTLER

For Xa (Homo sapiens, UniProt P00742), give the measured Ki of the entry N=C(N)c1ccc(CNC(=O)[C@H](Cc2cccc(CN)c2)NC(=O)[C@@H](CCCc2ccccc2)NS(=O)(=O)Cc2cccc(C(=O)O)c2)cc1
< 100 nM

Report Ki from Xa (Homo sapiens, UniProt P00742) testing of N=C(N)c1ccc(CNC(=O)[C@H](Cc2c[nH]cn2)NC(=O)[C@@H](CCCc2ccccc2)NS(=O)(=O)Cc2ccccc2)cc1
< 1000 nM

====

assay-protocol: Terminal half-life in dogs
condition-details: dog, in vivo
readout-label: half-life (min)
Provide the reading as a plain figure in min.

Report half-life, nothing else, for this compound: N=C(N)c1ccc(CNC(=O)[C@H](Cc2cccc(CN)c2)NC(=O)[C@@H](CCCc2ccccc2)NS(=O)(=O)Cc2cccc(C(=O)O)c2)cc1
20

====

# Ki values compiled below
tested-target: Thrombin (Homo sapiens, UniProt P00734)
assay-protocol: Determination of inhibition constants for thrombin
Type: biochemical

In one line, give reported Ki of the entry N=C(N)c1ccc(CNC(=O)[C@H](Cc2cccc(CN)c2)NC(=O)[C@H](NS(=O)(=O)Cc2ccccc2)C(c2ccccc2)c2ccccc2)cc1 .
< 10 nM

Fill in reported Ki for this entry: N=C(N)c1ccc(CNC(=O)[C@H](CCc2ccccc2)NC(=O)[C@@H](CCCc2ccncc2)NS(=O)(=O)Cc2ccccc2)cc1
< 100 nM

In one line, give reported Ki of the entry N=C(N)c1ccc(CNC(=O)[C@H](Cc2cccc(CN)c2)NC(=O)[C@@H](CCCc2ccc(OC(F)(F)F)cc2)NS(=O)(=O)Cc2ccccc2)cc1 .
< 1000 nM

====

The following molecules are listed with their measured pKi values.
tested-target: Thrombin (Homo sapiens)
assay-protocol: Determination of inhibition constants for thrombin
Assay type: biochemical
pKi: −log10 of the molar value.

Use these answered entries as a reference point.
Report its pKi with Thrombin (Homo sapiens) as the test system: N=C(N)c1ccc(CNC(=O)[C@H](Cc2ccc(CN)cc2)NC(=O)[C@@H](CCCc2ccccc2)NS(=O)(=O)Cc2ccccc2)cc1 [compound 28]
> 6.00

State measured pKi of the molecule CC(C)(C)OC[C@@H](NS(=O)(=O)Cc1ccccc1)C(=O)N[C@@H](CCc1cccc(CN)c1)C(=O)NCc1ccc(C(=N)N)cc1 [compound 73] with Thrombin (Homo sapiens).
> 7.00

State pKi on Thrombin (Homo sapiens). Entry: N=C(N)c1ccc(CNC(=O)[C@H](CCc2cc[n+]([O-])cc2)NC(=O)[C@@H](CCCc2ccccc2)NS(=O)(=O)Cc2ccccc2)cc1 [compound 41]
> 7.00

State the measured pKi (Thrombin (Homo sapiens)) of N=C(N)c1ccc(CNC(=O)[C@H](CCc2cc[n+]([O-])cc2)NC(=O)[C@@H](CCCc2ccccc2)NS(=O)(=O)Cc2cccc(C(=O)O)c2)cc1 [compound 42]
> 6.00

Give pKi only, for N=C(N)c1ccc(CNC(=O)[C@H](CCCc2ccccc2)NC(=O)[C@@H](CCc2ccncc2)NS(=O)(=O)Cc2ccccc2)cc1 [compound 48] , using Thrombin (Homo sapiens) data.
> 6.00

Please indicate recorded pKi of N=C(N)c1ccc(CNC(=O)[C@H](Cc2cccc(CN)c2)NC(=O)[C@@H](CCc2ccc(O)cc2)NS(=O)(=O)Cc2ccccc2)cc1 [compound 24] measured with Thrombin (Homo sapiens).
> 6.00

Others:
Under Thrombin (Homo sapiens), report pKi for N=C(N)c1ccc(CNC(=O)[C@H](Cc2cccc(CN)c2)NC(=O)[C@@H](Cc2ccc3ccccc3c2)NS(=O)(=O)Cc2ccc(C(=O)O)cc2)cc1 [compound 19]
> 6.00

Provide pKi, system Thrombin (Homo sapiens), entry N=C(N)c1ccc(CC[C@H](NC(=O)[C@@H](CO)NS(=O)(=O)Cc2ccccc2)C(=O)NCc2ccc(C(=N)N)cc2)cc1 [compound 78]
< 6.00
